test system: K4 kissing-loop RNA reporter; experiment: apparent KD of K4 kissing-loop reporter; higher = weaker reporter binding; details: Eterna round: R107; input ligand: tryptophan 2.4 mM
Decide using apparent KD of K4 kissing-loop reporter: a value greater than or equal to 200 nM is criterion met, a smaller one is criterion not met.

Reference set (5 entries):
INSERT INTO assay_data (residue_sequence, class) VALUES
  ('AGGUUUUGAUUAGGAUAUGCACUGAGGAGGAGAAUAUAGUGAUGUUAUAUAAGAGGAAGGAGAAGAGUAGAAGGGAUUGAGGUUU [SSFMNB.Q]', 'criterion not met'),
  ('AUAGGAGUGAUGUUCCUUAGUCUCUCCGAUACCAGUAUGGAAACAUACCCUUGGCAGCGGUAGACCGCAGAUUAGGAAACUAGUC [Theophylline A K4 3]', 'criterion met'),
  ('GUCCACACUGCAGGAUAUGGAGGUAUAGCGAGGGAGUUUGGAAGCACACCUCUGGCAGUGAUGUUGCCAGAAGGGCGGUGCGGCG [Rauserin]', 'criterion not met'),
  ('AGUCCACUCUAAAGAGUGGACCUAAGGGAUACCAGUGAUGUUGGUCACCCUUGGCAGCCCUCUGUCAUCGAUAAAGAUGGCAGGA', 'criterion not met'),
  ('CCCAAAAUAUGCAGUGAUGUUGCAACCGAUACCAGUAUCGAAAGAUACCCUUGGCAGCGGAAAACCGCUACGUAAUUUAAAAGGG [Ex Theophylline A K4 17]', 'criterion met');

Below: the item to evaluate.
Exercise: Check the entry GGGCCGCGCGCGGCCGCCACUCAGUGAUGUUGGGUGAGCUUUGCUGUGCGUGCUGUUUCGUGACGGAGGACCGGGCGCGCGGCCU [BDazzled 2] : does apparent KD of K4 kissing-loop reporter equal or exceed 200 nM?
Solution: criterion met

---

Each entry below carries its reported apparent KD of K4 kissing-loop reporter.
system: K4 kissing-loop RNA reporter; test: apparent KD of K4 kissing-loop reporter; higher = weaker reporter binding; details: Eterna round: R107; input ligand: FMN 200 uM;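 further: bound reporter read as fluorescence of individual clusters on recovered sequencing chips by microscopy, with normalized cluster intensities fitted with a binding model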
Numeric answer only, unit nM assumed.

Below, 8 sequences whose answers are already recorded.
INSERT INTO assay_data (residue_sequence, assay_value) VALUES
  ('UAAGAGGACCACUGCAAGAGUCCUCGAAUACGAGGACCGGUACGGCCGCCACUCGAUAAUUUGCAGUGAUGUUGCAAGUAAGAAU [BrourdMod 5 - Jieux - Same State Tryptophan A]', 115),
  ('GCGCGGCUCAGUGAUGUUGAGCCUCGGAAACGAGGACCGGUACGGCCGCCACUCGUCCGCGCAGCUGAGGCAAAAGCCUCGGCAA [Omei KL Tryp A SS B v1]', 284),
  ('CCAUGAGGAUAAGAUGAUAUCAUAACAGAAGGAGCGAGUGAUAACUCAGGUAGGUCGCUGAAUUUAUCGAGUGAUGUUCGAUGAA [Same State Arginine A GF11]', 194),
  ('CAGAUCACAGAGUGAUGUUCUGUGUCCGAAGGAGCGCGCUUCGGCGCAGGUAGGUCGCGGAUACAGUUGACGUACCAUCUAGACA [Arg A Ex t3c]', 446),
  ('GGACCGCCAGUGAUGUUGGAGAUAAACUCCAAGGAUAUGACGAAAGUCAGAAGGUGGUAAUAAGACGUCAAAGACGUCAGGUCCA [FmnA 21 #SwitchBubble #K4Early]', 970),
  ('AUUUGUUUAUGUGAUACCAGACUUUGCAGUGAUGUUGCAUUUAUUUUAGAAUAUAAUUUAGUCCCUUGGCAGCACUAUGUAUUUA [JR_SSTheophyB_Sub008]', 67.1),
  ('CGAGUGAUGUUCGUUCGUUUAUUUGGGUGACAGGAUAUGCGGAAACGCAGAAGGGUCACCUUCGGGUUACCCGAAUUAACGUUAU [#09 K4 FMN A Exclusion]', 724),
  ('AAGAAGGUCAAAGACCUUCGUGCACCUGAUACCAGUCGCGAAAGCGACCCUUGGCAGCAGGGCAGUGAUGUUGCCAAGUGCACAA [Omei KL Theo A SS A v1]', 782);

Exercise: Value wanted: apparent KD of K4 kissing-loop reporter (K4 kissing-loop RNA reporter) of entry UGAUACCAGACGGCCGCCACUUCUGCAAGUCAAAGACUUGCUAAAGGAAUCGUCCAGUGAUGUUGGAGGACCGGGUCUGGUAUCU [FiskerMod 1 - Jieux - Exclusion - Tryptophan B]
Solution: 1020

Exercise: // same read-out, input: UGUAAGCGCGUAGAUACCAGCAAACAAAGAGUGAUGUUCAGAUUAAGGAAAAGAAAGUAAUGCCCUUGGCAGCUAAUCAUAAGCG [Theophylline B Exclusion; Euphoria Solution]
Solution: 419

Exercise: GUGGGCUCGGGAGGAUAUGAGUCUAGUGAUGUUAGGCGGUCCAUGCGCGUGGCGCGUUAUGCCCUUUUAGAAGGCCCGAGCCCUC [#2 Exclusion - FMN B Attempt #24 (HarryS)] ?
Solution: 99.8
